Consider the following molecules; for each one, report its O-acyl pro-drug (% present).
method_description: Acyl group migration (rearrangement) of pro-drug in DMSO-d6/buffer solution monitored by 19F-NMR
Type: physicochemical
assay_setup: pH 4, 40° C., time 0 hr
Description: A compound of formula (I) OR (X) (5 mg) is dissolved in DMSO-d6 (500 μL) and either pH 4 buffer solution (500 μL, potassium hydrogen phthalate buffer) or pH 7 buffer solution (500 μL, sodium and potassium phosphate buffer) is added. […] The O-acyl or N-acyl to N-terminal N-acyl migration is monitored by observing the change in chemical shift for the aromatic fluorines using ^19F-NMR. […] The sample is analyzed by ^19F-NMR at approxiamately 0, 1.5, 3, 24, 48, and 144 hours. […]
Express it in %; write the number only.

Lookup: Provide one value: measured O-acyl pro-drug (% present) of C#Cc1cccc(C2(NC[C@@H](OC(=O)c3cc(C(=O)N(CCC)CCC)cc(-c4ncco4)c3)[C@@H](N)Cc3cc(F)cc(F)c3)CC2)c1 [Preparation 22]
Found: 100

Lookup: Give O-acyl pro-drug (% present) for CCCN(CCC)C(=O)c1cc(C(=O)N(Cc2cccc(C(F)(F)F)c2)C[C@@H](O)[C@@H](N)Cc2cc(F)cc(F)c2)cc(-c2ncco2)c1.Cl [Preparation 20]
Found: 0

Lookup: Could you please provide reported O-acyl pro-drug (% present) for CCCN(CCC)C(=O)c1cc(C(=O)O[C@H](CNC2(c3cccc(CC)c3)CC2)[C@@H](N)Cc2cc(F)cc(F)c2)cc(-c2ncco2)c1.Cl.Cl [Preparation 17] ? Thanks!
Found: 100

---

method_description: Acyl group migration (rearrangement) of pro-drug in DMSO-d6/buffer solution monitored by 19F-NMR
Assay type: physicochemical
assay_setup: pH 4, 40° C., time 24 hr
test_readout: N-acyl prodrug (% present) (%)
Numbers only here, please. The scale is %.

Lookup: Answer with the recorded N-acyl prodrug (% present) for the compound listed here: C#Cc1cccc(C2(NC[C@@H](OC(=O)c3cc(C(=O)N(CCC)CCC)cc(-c4ncco4)c3)[C@@H](N)Cc3cc(F)cc(F)c3)CC2)c1
Found: 0

Lookup: Give the measured N-acyl prodrug (% present) for CCCN(CCC)C(=O)c1cc(C(=O)O[C@H](CNCc2cccc(CC)c2)[C@@H](N)Cc2cc(F)cc(F)c2)cc(-c2ncco2)c1.Cl.Cl
Found: 12

Lookup: Give N-acyl prodrug (% present) for the following compound: CCCN(CCC)C(=O)c1cc(C(=O)O[C@H](CNC2(c3cccc(CC)c3)CC2)[C@@H](N)Cc2cc(F)cc(F)c2)cc(-c2ncco2)c1.Cl.Cl
Found: 0

Lookup: Look up and state reported N-acyl prodrug (% present) for CCCN(CCC)C(=O)c1cc(C(=O)N(Cc2cccc(C(F)(F)F)c2)C[C@@H](O)[C@@H](N)Cc2cc(F)cc(F)c2)cc(-c2ncco2)c1.Cl
Found: 93

Lookup: Give N-acyl prodrug (% present) for CCCN(CCC)C(=O)c1cc(C(=O)N(Cc2cccc(CC)c2)C[C@@H](O)[C@@H](N)Cc2cc(F)cc(F)c2)cc(-c2ncco2)c1.Cl
Found: 97
